- Assay: Single dose PK in healthy subjects (Cohorts 1, 2, S1 and S2), plasma
- Type: in vivo, human
- Condition Context: human, plasma, intravenous, 28 mg; 6 hr; read-out: Plasma concentration, Maximum
Experimental Readout: concentration at 6 hr
Could you give the number and then its unit, please?

Using known records, supply concentration at 6 hr for COC(=O)N1CCC[C@H](NS(C)(=O)=O)[C@@H]1CO[C@H]1CC[C@@H](c2ccccc2)CC1 [Compound A]
51.7 ng/mL

* * *

- Assay: Single dose PK in healthy subjects (Cohorts 1, 2, S1 and S2), plasma
- Type: in vivo, human
- Condition Context: human, plasma, intravenous, 134.4 mg; 9 hr; read-out: Plasma concentration, Q1
Experimental Readout: concentration at 9 h (ng/mL)
Numbers only, in ng/mL.

Using known records, supply concentration at 9 h for COC(=O)N1CCC[C@H](NS(C)(=O)=O)[C@@H]1CO[C@H]1CC[C@@H](c2ccccc2)CC1 [Compound A]
268

* * *

- Assay: Single dose PK in healthy subjects (Cohorts 1, 2, S1 and S2), plasma
- Format: in vivo, human
- Condition Context: human, plasma, intravenous, 134.4 mg; 3 hr; read-out: Plasma concentration, Minimum
Experimental Readout: concentration at 3 h (ng/mL)
Answers are plain numbers, in ng/mL.

Using known records, supply concentration at 3 h for "COC(=O)N1CCC[C@H](NS(C)(=O)=O)[C@@H]1CO[C@H]1CC[C@@H](c2ccccc2)CC1"
217

* * *

- Assay: Single dose PK in healthy subjects (Cohorts 1, 2, S1 and S2), plasma
- Type: in vivo, human
- Condition Context: human, plasma, intravenous, 14 mg; 2 hr; read-out: Plasma concentration, Minimum
Experimental Readout: concentration at 2 h (ng/mL)
Answers are plain numbers, in ng/mL.

Using known records, supply concentration at 2 h for COC(=O)N1CCC[C@H](NS(C)(=O)=O)[C@@H]1CO[C@H]1CC[C@@H](c2ccccc2)CC1 [Compound A]
29.6

* * *

- Assay: Single dose PK in healthy subjects (Cohorts 1, 2, S1 and S2), plasma
- Type: in vivo, human
- Condition Context: human, plasma, intravenous, 112 mg; 9 hr; read-out: Plasma concentration, Q3
Experimental Readout: concentration at 9 h
Could you give the number and then its unit, please?

Using known records, supply concentration at 9 h for "COC(=O)N1CCC[C@H](NS(C)(=O)=O)[C@@H]1CO[C@H]1CC[C@@H](c2ccccc2)CC1"
245 ng/mL

* * *

- Assay: Single dose PK in healthy subjects (Cohorts 1, 2, S1 and S2), plasma
- Type: in vivo, human
- Condition Context: human, plasma, iv, 134.4 mg, 134.4 mg single IV infusion, healthy subjects; read-out: Ceoi Mean
Experimental Readout: concentration at 9 h (ng/mL)
One number for each entry, in ng/mL.

Using known records, supply concentration at 9 h for COC(=O)N1CCC[C@H](NS(C)(=O)=O)[C@@H]1CO[C@H]1CC[C@@H](c2ccccc2)CC1 [Compound A]
292

* * *

- Assay: Single dose PK in healthy subjects (Cohorts 1, 2, S1 and S2), plasma
- Assay type: in vivo, human
- Condition Context: human, plasma, iv, 112 mg, 112 mg single IV infusion, healthy subjects; read-out: Vss Median
Experimental Readout: Vd (L)
One number for each entry, in L.

Using known records, supply Vd for COC(=O)N1CCC[C@H](NS(C)(=O)=O)[C@@H]1CO[C@H]1CC[C@@H](c2ccccc2)CC1 [Compound A]
104
